system: L1210 leukemia ip in BDF1 mice, survival T/C; experiment: NCI In Vivo Anticancer Drug Screen. Data for tumor model L1210 Leukemia (intraperitoneal) in B6D2F1 (BDF1) mice; details: endpoint: mean survival time; dose: 50.0 mg/kg/injection; schedule: Q01DX001 (ip); vehicle: saline; higher = longer survival
Inconclusive results and toxic doses are left out.
For each of the compounds below, state its T/C.

Here's what some known entries look like.
Oc1ccc(O)c(Cl)c1    107 % of control
C1CC2CC1C1OC21 (configuration not stated)    103 % of control

For each listed entry, give its T/C.
1. O=C(CCCC(=O)N/N=C/c1c(Cl)cccc1Cl)N/N=C\c1c(Cl)cccc1Cl
2. O=C(CCCNC(=O)OCc1ccccc1)NCCCCCCNCCCCCCNC(=O)CCCNC(=O)OCc1ccccc1
3. CO/N=C1/C=C(C)C(=O)C(C)=C1C
4. CC(C)(C)OC(=O)CC(O)c1ccccc1 (configuration not stated)

Output:
1: 100 % of control; 2: 95 % of control; 3: 94 % of control; 4: 94 % of control

For each listed entry, give its T/C.
1. Cc1ccc(C(=O)Cc2ccc(C#N)cc2)cc1
2. CC1CN1P(=O)(N1CC=CCC1)N1CC1C (configuration not stated)
3. COc1cc(CNCc2cc(OC)c(OC)c(OC)c2)cc(OC)c1OC

Output:
98 % of control
109 % of control
102 % of control

For each listed entry, give its T/C.
1. NCCCC(=O)NCCCCCCNCCCCCCNC(=O)CCCN
2. COc1ccccc1CN1CCCN(Cc2ccccc2OC)C1c1cc(Cl)cc(Cl)c1O

Output:
1. 98 % of control
2. 98 % of control

For each listed entry, give its T/C.
1. O=C(O)CO
2. O=C(CCCC(=O)N/N=C/C=C/c1ccccc1)N/N=C/C=C\c1ccccc1

Output:
1. 94 % of control
2. 87 % of control

====

test system: L1210 leukemia ip in BDF1 mice, survival T/C; assay: NCI In Vivo Anticancer Drug Screen. Data for tumor model L1210 Leukemia (intraperitoneal) in B6D2F1 (BDF1) mice; conditions: endpoint: mean survival time; dose: 25.0 mg/kg/injection; schedule: Q01DX009 (ip); vehicle: Klucel (hydroxypropylcellulose) (HPC); higher = longer survival
Toxic doses and inconclusive results are not listed.
measured.parameter: T/C

Here's what some known entries look like.
NC(=O)CNC(=O)C(CSCc1ccccc1)NC(=O)OCc1ccccc1 (stereo not drawn)    89 % of control
Cc1ccc(NC(=O)Oc2cccnc2)cc1    107 % of control
Nc1nc(Cl)c2nnn(C3CC(O)C(CO)C3)c2n1 (stereo not drawn)    118 % of control
Nc1nc(N)nc(Nc2ccc([As]=O)cc2)n1 (stereo not drawn)    112 % of control

For each listed entry, give its T/C.
1. OCCC[P+](c1ccccc1)(c1ccccc1)c1ccccc1
2. COc1cc([N+](=O)[O-])ccc1NC(=O)Oc1ccccc1C(N)=O
3. C[N+](C)(Cc1ccccc1)C1c2ccccc2-c2ccc(Br)cc21 (stereo not drawn)
4. CSc1cccc(NC(=S)NC(=O)c2ccccc2)c1
5. CN1C(=O)CCS(=O)(=O)C1c1ccc(Cl)c(Cl)c1 (stereo not drawn)
6. CCc1ccccc1NC(=O)Nc1ccc(OC)cc1
7. O=S(=O)(O)Cc1c(O)ccc2ccccc12
8. O=C(Nc1cc(C(F)(F)F)ccc1Cl)Oc1ccc(Cl)cc1Cc1ccccc1

Output:
1. 96 % of control
2. 100 % of control
3. 92 % of control
4. 96 % of control
5. 114 % of control
6. 90 % of control
7. 96 % of control
8. 93 % of control

Input: Item CCCCNc1c(C(=O)OCC)cnc2c1cnn2CC with L1210 leukemia ip in BDF1 mice, survival T/C - T/C?
Output: 96 % of control
